MEASURED_TARGET: Cyclin-dependent kinase 2/cyclin E1 (Homo sapiens)
ASSAY_EXPLANATION: Inhibition of human recombinant C-terminal His6-tagged full length human Cdk2/human recombinant N-terminal GST-tagged full-length Cyclin E using histone H1 substrate after 40 mins by radiometric filter binding assay
PARAMETER_MEASURED: pIC50
In plain terms, pIC50 is the concentration in mol/L turned into minus its base-10 logarithm.

>>> print(df.to_string())
                                   compound  test_result
0  CCOP(=O)(OCC)C(CNc1cc(C)c(C)cc1NC(=S)NC(=O)[C@]1(C)CCC[C@]2(C)c3ccc(C(C)C)cc3CC[C@@H]12)P(=O)(OCC)OCC         5.59

Data request, read-out pIC50, for CCOP(=O)(OCC)C(CNc1ccc(Oc2ccc(NC(=S)NC(=O)[C@]3(C)CCC[C@]4(C)c5ccc(C(C)C)cc5CC[C@@H]34)cc2)cc1)P(=O)(OCC)OCC
4.39

Data request, read-out pIC50, for CC(C)c1ccc2c(c1)CC[C@H]1[C@](C)(C(=O)O)CCC[C@]21C [DEHYDROABIETIC ACID]
4.44

* * *

MEASURED_TARGET: Cyclin-dependent kinase 2/cyclin E1 (Homo sapiens, UniProt P24941)
ASSAY_EXPLANATION: Inhibition of human recombinant C-terminal His6-tagged full length human Cdk2/human recombinant N-terminal GST-tagged full-length Cyclin E using histone H1 substrate after 40 mins by radiometric filter binding assay
# key: entry, value: IC50
Your answer should be a plain number; it is taken to be in µM.

In [3]: df
Out[3]:
                           structure_string                           measured_target  test_result
0  CCOP(=O)(OCC)C(CNc1cccc(NC(=S)NC(=O)[C@]2(C)CCC[C@]3(C)c4ccc(C(C)C)cc4CC[C@@H]23)c1C)P(=O)(OCC)OCC  Cyclin-dependent kinase 2/cyclin E1 (Homo sapiens, UniProt P24941)         5.98

Now take the following compound into account.
Data request, read-out IC50, for CCOP(=O)(OCC)C(CNc1ccc(Sc2ccc(NC(=S)NC(=O)[C@]3(C)CCC[C@]4(C)c5ccc(C(C)C)cc5CC[C@@H]34)cc2)cc1)P(=O)(OCC)OCC
1.01

Hey, just so you know, these numbers are from ChEMBL document CHEMBL3758138.
